Assay: PK of compound of Formula (Ia) after single subcutaneous dose of solution formulations in Wistar Han rats
Assay type: in vivo
Conditions: male, Wistar Han, rat, plasma, sc, 50 mg/kg, mean ± SD, n = 5 rats; SC 50 mg/kg; solution T, 400 mg/mL; read-out: AUC0-672 h
Experimental: Formulations containing the compound of Formula (Ia), or a pharmaceutically acceptable salt thereof, were prepared as solutions and optionally administered subcutaneously or intramuscularly to rats, rabbits, and/or dogs. A solution of about 400 mg/mL of the compound of Formula (Ia) having 19.14 w/w % water, 40.66 w/w % PEG 300, 35.20 w/w % of a sodium salt of a compound of Formula (Ia), and 5.00% ethanol was prepared. […]
property: AUC(0-t) (µM·h)
Expressed in µM·h, but write only the number.

Using the record for CC(C)(C#Cc1ccc(-c2ccc(Cl)c3c(NS(C)(=O)=O)nn(CC(F)(F)F)c23)c([C@H](Cc2cc(F)cc(F)c2)NC(=O)Cn2nc(C(F)(F)F)c3c2C(F)(F)[C@@H]2C[C@H]32)n1)S(C)(=O)=O [compound of Formula (Ia)] , report its AUC(0-t).
173
